# pEC50 values compiled below
# measured target: GABA-B receptor (Rattus norvegicus (Rat), UniProt O88871+Q9Z0U4)
# Sequence (Q9Z0U4 17-960): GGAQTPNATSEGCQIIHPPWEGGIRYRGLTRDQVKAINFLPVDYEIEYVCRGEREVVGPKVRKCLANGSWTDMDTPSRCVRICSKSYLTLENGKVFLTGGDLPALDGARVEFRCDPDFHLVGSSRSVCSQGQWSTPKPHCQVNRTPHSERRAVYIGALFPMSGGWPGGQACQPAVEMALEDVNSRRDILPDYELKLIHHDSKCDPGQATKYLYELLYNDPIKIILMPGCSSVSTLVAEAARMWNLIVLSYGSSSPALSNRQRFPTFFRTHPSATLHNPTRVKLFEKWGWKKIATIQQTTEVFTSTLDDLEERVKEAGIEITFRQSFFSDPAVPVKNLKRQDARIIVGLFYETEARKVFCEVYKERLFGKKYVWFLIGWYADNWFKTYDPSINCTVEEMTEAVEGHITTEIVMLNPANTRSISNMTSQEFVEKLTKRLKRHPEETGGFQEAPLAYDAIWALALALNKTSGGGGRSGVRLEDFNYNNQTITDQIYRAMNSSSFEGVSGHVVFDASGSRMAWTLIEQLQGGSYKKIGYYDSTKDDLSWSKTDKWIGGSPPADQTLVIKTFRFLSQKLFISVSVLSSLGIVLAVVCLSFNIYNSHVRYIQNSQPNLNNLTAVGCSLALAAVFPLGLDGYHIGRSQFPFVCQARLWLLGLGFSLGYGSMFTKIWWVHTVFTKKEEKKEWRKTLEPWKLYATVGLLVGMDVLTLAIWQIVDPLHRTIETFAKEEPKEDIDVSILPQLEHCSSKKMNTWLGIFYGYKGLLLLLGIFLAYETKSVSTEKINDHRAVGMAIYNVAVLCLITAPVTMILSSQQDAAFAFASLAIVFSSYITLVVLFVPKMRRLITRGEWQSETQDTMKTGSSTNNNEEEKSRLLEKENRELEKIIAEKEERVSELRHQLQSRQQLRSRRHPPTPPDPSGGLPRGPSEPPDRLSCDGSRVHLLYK
# Sequence (O88871 41-940): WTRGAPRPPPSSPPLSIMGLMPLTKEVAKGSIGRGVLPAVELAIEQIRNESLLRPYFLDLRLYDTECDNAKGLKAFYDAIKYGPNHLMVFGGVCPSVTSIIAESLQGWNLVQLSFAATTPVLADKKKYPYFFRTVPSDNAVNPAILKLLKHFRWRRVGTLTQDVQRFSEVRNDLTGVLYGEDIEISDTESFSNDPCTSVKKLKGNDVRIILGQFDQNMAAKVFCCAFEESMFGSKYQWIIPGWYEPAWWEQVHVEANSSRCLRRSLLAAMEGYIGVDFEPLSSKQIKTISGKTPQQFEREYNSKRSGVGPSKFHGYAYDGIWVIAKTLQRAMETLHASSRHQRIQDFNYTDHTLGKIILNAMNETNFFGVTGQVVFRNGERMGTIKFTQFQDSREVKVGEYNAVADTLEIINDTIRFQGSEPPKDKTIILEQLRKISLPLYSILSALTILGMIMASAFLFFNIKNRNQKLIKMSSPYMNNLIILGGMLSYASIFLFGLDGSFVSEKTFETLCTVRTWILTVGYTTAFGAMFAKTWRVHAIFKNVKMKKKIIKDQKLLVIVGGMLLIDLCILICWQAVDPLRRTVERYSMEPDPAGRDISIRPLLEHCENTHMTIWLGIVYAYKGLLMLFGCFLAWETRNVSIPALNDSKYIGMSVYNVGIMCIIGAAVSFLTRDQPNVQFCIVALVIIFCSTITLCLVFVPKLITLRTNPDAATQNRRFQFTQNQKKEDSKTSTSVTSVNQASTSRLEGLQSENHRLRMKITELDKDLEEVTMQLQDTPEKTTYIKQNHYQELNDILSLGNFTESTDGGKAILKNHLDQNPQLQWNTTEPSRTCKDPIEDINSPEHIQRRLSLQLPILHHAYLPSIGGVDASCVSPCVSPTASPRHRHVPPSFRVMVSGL
# assay summary: [35S]GTPgS binding assay, rat cortical membranes, in presence of EC25 GABA
# applied conditions: rat brain cortex membranes; in presence of 1 μM GABA (EC25); positive allosteric modulation
Reminder that pEC50 is minus the log10 of a molar concentration.

# example entries with known answers
{"compound": "CCCC(c1ccc(Cl)cc1)c1cc2nc(C)cc(N3CCCC(F)(F)C3)n2n1 (centres unmarked) [Example 5-2]", "reported endpoint": "pEC50", "quantitative readout": 8.15}
{"compound": "Cc1cc(N2CCC3(CC2)COC3)n2nc(C(C)c3ccc(Cl)cc3)cc2n1 (centres unmarked) [Example 2-9]", "reported endpoint": "pEC50", "quantitative readout": 6.22}
{"compound": "Cc1cc(N2CCCC(CO)C2)n2nc(C(C)c3ccc(Cl)cn3)cc2n1 (centres unmarked) [Example 9-1]", "reported endpoint": "pEC50", "quantitative readout": 5.81}
{"compound": "Cc1cc(N2CCC(C(N)=O)C2)n2nc(C(C)c3ccc(C(F)(F)F)cc3)cc2n1 (centres unmarked) [Example 8-22]", "reported endpoint": "pEC50", "quantitative readout": 6.11}

Please report the recorded pEC50 for Cc1cc(N2CCCCC2CCO)n2nc(Cc3cccc(C(F)(F)F)c3)cc2n1 (centres unmarked) [Example 6-1] . 5.74

And then Cc1cc(NC(C)(C)C)n2nc(C(C)c3ccc(C(F)(F)F)cc3)cc2n1 (centres unmarked) [Example 8-19] , what is it? 6.56

And then Cc1cc(N2CCC3(CCC3O)C2)n2nc(C(C)c3ccc(Cl)cc3)cc2n1 (centres unmarked) [Example 2-20] , what is it? 7.03

* * *

# measured target: GABA-B receptor (Rattus norvegicus (Rat), UniProt O88871+Q9Z0U4)
# assay summary: [35S]GTPgS binding assay, rat cortical membranes, in presence of EC25 GABA
# applied conditions: rat brain cortex membranes; in presence of 1 μM GABA (EC25); positive allosteric modulation
# Experimental: Preparation of Rat Brain Membranes for Native Receptor Assays Membranes from rat brain cortex were prepared as described in detail by Olpe et al. and stored at concentrations of 1.66 mg/mL protein at −80° C. until required. (Olpe, H.-R, et al. Eur J Pharmacol 1990; 187: 27-38). [^35S] GTPgS Binding Assay […]
# pEC50 values compiled below
Reminder that pEC50 is minus the log10 of a molar concentration.

# example entries with known answers
{"compound": "Cc1cc(N2CCCCC2CO)n2nc(C(C)c3ccc(C(F)(F)F)cc3)cc2n1 (centres unmarked) [Example 8-9]", "pEC50": 6.46}
{"compound": "Cc1cc(N[C@H]2C[C@H](O)C2)n2nc(C(C)c3ccc(Cl)cc3)cc2n1 (relative stereo) [Example 2-19]", "pEC50": 5.88}
{"compound": "Cc1cc(N[C@H](C)C(F)(F)F)n2nc(Cc3ccc(Cl)cc3)cc2n1 [Example 1-20]", "pEC50": 5.67}

Please report the recorded pEC50 for Cc1cc(N2CCC[C@@H](O)C2)n2nc(Cc3ccc(Cl)cc3)cc2n1 [Example 1-7] . 5.91

And then Cc1cc(N2CCCCC2CCO)n2nc(C(C)c3ccc(C(F)(F)F)cc3)cc2n1 (centres unmarked) [Example 8-2] , what is it? 7.06
